Recorded melting point values for a group of molecules are listed next.

| molecule | melting point |
| --- | --- |
| COc1cc(C=NO)ccc1OC(F)F | 57 to 59 °C |
| NC(=O)C1CCN(S(N)(=O)=O)CC1 | 228 to 230 °C |
| O=C(O)c1noc2c1CCCC2 | 124 to 126 °C |
| O=C(O)c1ccc(-c2cccs2)[nH]c1=O | 289 to 291 °C |
| CC(C)c1ccc(S(=O)(=O)NCCC(=O)O)cc1 | 195 to 205 °C |
| Cn1c(=O)n(C)c2cc(N)ccc21 | 148 to 150 °C |
| COC(=O)c1c(C)[nH]c(C(=O)O)c1C | 206 to 208 °C |
| Cn1ccnc1CC(=O)c1ccccc1 | 96 to 98 °C |
| CNC1CCS(=O)(=O)c2ccc(Br)cc21 (stereo not given) | 108 to 110 °C |
| c1ccc(COc2ccc3ncccc3c2)cc1 | 73 to 75 °C |
